- Read-out: Tissue Factor, F3 (gene 2152)
- assay-method-text: BSK_CASM3C_TissueFactor: BioMAP Diversity Plus: CASM3C Assay for Tissue Factor Biomarker Activity (AID 2283052);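 further: cell surface tissue factor protein level read by ELISA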
- run-conditions: primary human coronary artery smooth muscle cells; actives raise or lower the signal
The source made the active and inactive calls. How the source made its calls: active means hit-call score of the fitted dose curve at least 0.9, where 1 is the maximum; inactive means score below 0.9.
Outcome field: choose from label 1 = active, label 0 = inactive

Query: State the result this test recorded for CCCCCCCCCCCCCCCCCC[N+](C)(C)C .
Response: label 1

====

- assay-method-text: ATG_GRE_CIS: Attagene CIS-FACTORIAL HepG2 Assay for human Glucocorticoid Response Elements (GRE) (AID 2282947)
- run-conditions: HepG2 GRE cis-reporter, Attagene multiplex mRNA; actives raise or lower the signal
The source made the active and inactive calls. The calls were made as follows: active = hit-call score of the fitted dose curve at least 0.9, where 1 is the maximum; inactive = score below 0.9.
In this exercise, the only acceptable responses are T for active, F for inactive

{"columns": ["compound", "category"],
 "data": [
  ["CC1=C(CC(=O)O)c2cc(F)ccc2/C1=C\\c1ccc(S(C)=O)cc1 (stereo not drawn)", "F"]
]}

Query: So what was the verdict on CC1(C)S[C@@H]2[C@H](NC(=O)[C@H](N)c3ccccc3)C(=O)N2[C@H]1C(=O)O in this test?
Response: F

Query: Per the assay record, what outcome was assigned to CN(C)CCCN1c2ccccc2CCc2ccc(Cl)cc21 ?
Response: F

Query: Name the outcome recorded for Cc1cc2nc3c(=O)[nH]c(=O)nc-3n(C[C@H](O)[C@H](O)[C@H](O)CO)c2cc1C in the assay.
Response: F

Query: State the result this test recorded for CC/C=C/CCO .
Response: F

Query: Test call, this compound: CCCC(=O)OC/C=C(\C)CCC=C(C)C
Response: F

Query: I'd appreciate the recorded outcome for CCCCCC[C@@H](O)C/C=C\CCCCCCCC(=O)O from this test.
Response: T

Query: # outcome recorded in this test, key = O=C(O)c1ccccc1C(=O)O
Response: F

Query: Kindly provide the recorded test outcome for the following compound: Cc1cc(O)cc(C)c1Cl
Response: F

Query: Record request — test call for C=CC(C)(CCC=C(C)C)OC(=O)c1ccccc1 (stereo not drawn)
Response: F

Query: Just curious, what result did CCC(C)C1N=C(C)C(C)S1 (stereo not drawn) get here?
Response: F

Query: Recorded test outcome, item C=CN1CCCCCC1=O
Response: F

Query: I'd appreciate the recorded outcome for CCOC(=O)c1ccccc1 from this test.
Response: T

====

- experimental-target: THRB (gene 7068)
- assay-method-text: TOX21_TRB_COA_Antagonist_Followup_ratio: Tox21 Thyroid Hormone Receptor beta Antagonism through Coactivator Recruitment Follow-Up Assay, Ratio (AID 2283967)
Inconclusive results are not listed. Active and inactive are the calls of the source. Rule for the calls: active = hit-call score of the fitted dose curve at least 0.9, where 1 is the maximum; inconclusive = response in the unintended direction; inactive = score below 0.9.
Outcome field: choose from Yes for active, No for inactive

{"columns": ["given-smiles", "experimental-target", "category"],
 "data": [
  ["CCCOc1ccc2nc(NC(=O)OC)sc2c1", "THRB (gene 7068)", "No"],
  ["O=[Se](O)O", "THRB (gene 7068)", "Yes"],
  ["O=c1[nH]c(=O)n([C@H]2C[C@H](O)[C@@H](CO)O2)cc1F", "THRB (gene 7068)", "No"],
  ["Brc1cc(Oc2cc(Br)c(Br)c(Br)c2Br)c(Br)c(Br)c1Br", "THRB (gene 7068)", "No"]
]}

Query: Lab log entry: Cc1nc(-c2ccc(OCC(C)C)c(C#N)c2)sc1C(=O)O — outcome as called in the assay?
Response: No

Query: How was NC(N)=NCc1cccc(I)c1 classified in this test?
Response: No

Query: In this assay, the call recorded for O=C(CCCCCCC(=O)Nc1ccccc1)NO was what?
Response: No

Query: Test call, this molecule: CC(C)N=C(N)/N=C(\N)Nc1ccc(Cl)cc1
Response: No

Query: # lookup: test call for O=C(O)c1cccc(-c2noc(-c3ccccc3F)n2)c1
Response: No

Query: Called result for CO[C@H]1C[C@@H]2CC[C@@H](C)[C@@](O)(O2)C(=O)C(=O)N2CCCC[C@H]2C(=O)O[C@H]([C@H](C)C[C@@H]2CC[C@@H](OCCO)[C@H](OC)C2)CC(=O)[C@H](C)/C=C(\C)[C@@H](O)[C@@H](OC)C(=O)[C@H](C)C[C@H](C)\C=C/C=C/C=C/1C
Response: No
